Target: T1, human CEA protein on the cell surface (human, UniProt P06731 35-685)
T1 construct: whole, on cells; also called CEACAM-5; CD66e
T1 sequence (looked up): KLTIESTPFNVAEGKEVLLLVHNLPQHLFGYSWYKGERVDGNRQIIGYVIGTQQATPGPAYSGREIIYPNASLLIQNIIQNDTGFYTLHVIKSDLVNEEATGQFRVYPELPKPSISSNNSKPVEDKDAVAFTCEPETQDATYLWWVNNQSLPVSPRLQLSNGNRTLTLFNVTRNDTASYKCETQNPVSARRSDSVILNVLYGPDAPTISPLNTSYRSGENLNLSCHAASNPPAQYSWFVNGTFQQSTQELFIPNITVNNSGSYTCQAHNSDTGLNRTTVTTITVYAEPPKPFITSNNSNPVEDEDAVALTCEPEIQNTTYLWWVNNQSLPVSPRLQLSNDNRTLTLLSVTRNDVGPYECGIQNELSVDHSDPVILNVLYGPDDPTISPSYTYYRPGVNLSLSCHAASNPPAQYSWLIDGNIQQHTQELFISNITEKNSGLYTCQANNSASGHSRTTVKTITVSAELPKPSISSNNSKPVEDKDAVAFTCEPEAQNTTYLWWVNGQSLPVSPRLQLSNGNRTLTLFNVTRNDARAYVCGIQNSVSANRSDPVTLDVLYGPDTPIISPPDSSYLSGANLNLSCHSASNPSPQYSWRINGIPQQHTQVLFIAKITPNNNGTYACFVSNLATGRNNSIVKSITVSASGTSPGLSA
Test: FACS, MKN45 cells
So I've got a bunch of binders here, and I need their pEC50 values.
Lab note: report pEC50 as minus log10 of the concentration in molar units, number only.

May I ask what pEC50 has been recorded for Hu63-8 (antibody, human IgG1, kappa, V domains shown) VH: EVQLVQSGAEVKKPGASVKVSCKASGYTFTDFYMNWVRQAPGQGLEWIGDIFPKNGNTDYNRKFKDRATLTVDKSTSTVYMEFSSLRSEDTAVYYCARSGYGNYVFDYWGQGTLVTVSS VL: DVQMTQSPSSLSASVGDRVTITCRTSQDINIYLNWYQQKPGKAPKLLIYYRSGLLSGVPSRFSGSGSGTDYTLTISSLQPEDFATYYCQQGNTLPPTFGGGTKVEIKR ?
8.49

I would be grateful if you could share the reported pEC50 for Hu47-6 (antibody, human IgG1, kappa, V domains shown) VH: EVQLVQSGSELKKPGASVKVSCKASGYTFTTYGMSWVRQAPGQGLKWMGWINTYSGVPTYADDFKGRFVFSLDTSVSTAYLQISSLKAEDTAVYYCARRGNYGRWDFDVWGQGTTVTVSS VL: EIVLTQSPDFQSVTPKEKVTITCSVSSTISSSNLHWYQQKPDQSPKPLIYGTSNLASGVPSRFSGSGSGTDYTLTINSLEAEDAATYYCQQWSIYPLTFGQGTKLEIKR .
8.60
